Molecular target: 5-HT reuptake sites (Rattus norvegicus, UniProt P31652)
Construct: Frontal cortical tissue from the brains of male Charles River rats; from tissue; host or cells: rat frontal cortical membranes
Sequence (P31652 whole entry): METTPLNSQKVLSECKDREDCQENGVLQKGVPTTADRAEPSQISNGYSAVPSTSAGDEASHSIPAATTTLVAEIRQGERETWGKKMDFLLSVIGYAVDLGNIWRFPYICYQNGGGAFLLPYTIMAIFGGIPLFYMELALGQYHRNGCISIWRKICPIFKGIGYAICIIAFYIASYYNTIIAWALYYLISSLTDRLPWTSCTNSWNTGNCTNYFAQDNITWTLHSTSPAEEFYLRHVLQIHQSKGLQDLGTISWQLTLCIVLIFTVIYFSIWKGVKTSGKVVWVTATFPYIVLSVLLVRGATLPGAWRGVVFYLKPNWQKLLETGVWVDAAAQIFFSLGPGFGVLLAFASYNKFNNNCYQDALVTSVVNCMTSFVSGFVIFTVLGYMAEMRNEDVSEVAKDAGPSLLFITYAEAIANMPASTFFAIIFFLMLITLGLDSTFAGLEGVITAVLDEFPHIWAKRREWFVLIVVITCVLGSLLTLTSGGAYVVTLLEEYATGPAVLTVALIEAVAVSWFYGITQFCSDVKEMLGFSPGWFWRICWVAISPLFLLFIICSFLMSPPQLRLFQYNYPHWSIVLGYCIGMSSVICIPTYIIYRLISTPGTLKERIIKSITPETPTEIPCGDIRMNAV
Test: 5-HT uptake: displacement of [3H]citalopram from 5-HT reuptake sites, rat frontal cortical membranes
Assay type: binding
Settings: 10^−6 M test compound, single determination, [3H]citalopram
Listed here are compounds together with their documented inhibition at 1 µM.
Measurement Kind: inhibition at 1 µM (%)

[
  {
    "Compound": "CSC1=C(c2ccc3sccc3c2)N2CCN=C2S1",
    "Experimental System": "5-HT reuptake sites (Rattus norvegicus, UniProt P31652)",
    "Measurement Kind": "inhibition at 1 µM",
    "Unit Annotation": "%",
    "Measured": 95
  },
  {
    "Compound": "Br.COc1cccc2cc(C3=C(C)SC4=NCCN43)sc12 [Example 26, hydrobromide]",
    "Experimental System": "5-HT reuptake sites (Rattus norvegicus, UniProt P31652)",
    "Measurement Kind": "inhibition at 1 µM",
    "Unit Annotation": "%",
    "Measured": 64
  },
  {
    "Compound": "Br.CCC1=C(c2cc3c(Cl)cccc3s2)N2CCN=C2S1 [Example 18, hydrobromide]",
    "Experimental System": "5-HT reuptake sites (Rattus norvegicus, UniProt P31652)",
    "Measurement Kind": "inhibition at 1 µM",
    "Unit Annotation": "%",
    "Measured": 96
  },
  {
    "Compound": "OCC1=C(c2cc3ccccc3s2)N2CCN=C2S1",
    "Experimental System": "5-HT reuptake sites (Rattus norvegicus, UniProt P31652)",
    "Measurement Kind": "inhibition at 1 µM",
    "Unit Annotation": "%",
    "Measured": 75
  },
  {
    "Compound": "Br.CC1(c2cc3cc(F)ccc3s2)CSC2=NCCN21 (stereo not shown) [Example 27, hydrobromide]",
    "Experimental System": "5-HT reuptake sites (Rattus norvegicus, UniProt P31652)",
    "Measurement Kind": "inhibition at 1 µM",
    "Unit Annotation": "%",
    "Measured": 85
  },
  {
    "Compound": "Br.CCC1=C(c2cc3cc(Cl)ccc3s2)N2CCN=C2S1 [Example 11, hydrobromide]",
    "Experimental System": "5-HT reuptake sites (Rattus norvegicus, UniProt P31652)",
    "Measurement Kind": "inhibition at 1 µM",
    "Unit Annotation": "%",
    "Measured": 97
  },
  {
    "Compound": "Br.Clc1cccc2sc(C3=CSC4=NCCN34)cc12 [Example 1, hydrobromide]",
    "Experimental System": "5-HT reuptake sites (Rattus norvegicus, UniProt P31652)",
    "Measurement Kind": "inhibition at 1 µM",
    "Unit Annotation": "%",
    "Measured": 97
  }
]

====

Listed here are compounds together with their documented inhibition at 1 µM.
Biological target: noradrenaline (NA) reuptake sites (Rattus norvegicus, UniProt Q63380)
Construct: Frontal cortical tissue from the brains of male Charles River rats; from tissue; host or cells: rat frontal cortical membranes
Sequence (Q63380 1-617): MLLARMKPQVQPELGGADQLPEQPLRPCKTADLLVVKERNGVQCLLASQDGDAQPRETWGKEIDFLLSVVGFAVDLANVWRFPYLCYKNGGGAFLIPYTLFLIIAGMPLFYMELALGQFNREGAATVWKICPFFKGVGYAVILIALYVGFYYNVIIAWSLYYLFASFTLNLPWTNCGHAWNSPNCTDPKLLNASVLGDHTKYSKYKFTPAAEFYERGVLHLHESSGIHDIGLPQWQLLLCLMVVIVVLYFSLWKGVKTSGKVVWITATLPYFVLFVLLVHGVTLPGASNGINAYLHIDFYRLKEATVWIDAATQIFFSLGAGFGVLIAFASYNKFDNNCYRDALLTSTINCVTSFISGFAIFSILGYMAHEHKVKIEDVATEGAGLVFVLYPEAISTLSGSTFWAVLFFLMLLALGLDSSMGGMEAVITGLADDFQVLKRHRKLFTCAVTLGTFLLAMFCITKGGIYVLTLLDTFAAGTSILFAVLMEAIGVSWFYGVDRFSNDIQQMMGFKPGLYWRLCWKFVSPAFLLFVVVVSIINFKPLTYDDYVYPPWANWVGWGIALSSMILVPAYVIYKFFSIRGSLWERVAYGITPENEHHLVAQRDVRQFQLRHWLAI
Assay: NA uptake: displacement of [3H]nisoxetine from noradrenaline reuptake sites, rat frontal cortical membranes
Format: binding
Conditions: read-out: NA uptake % displacement at 10^−6 M

[
  {
    "Compound": "Br.CC1=C(c2cc3c(C)cccc3s2)N2CCN=C2S1 [Example 16, hydrobromide]",
    "inhibition at 1 µM": "83%"
  },
  {
    "Compound": "Br.CC1=C(c2cc3cccc(Cl)c3s2)N2CCN=C2S1 [Example 20, hydrobromide]",
    "inhibition at 1 µM": "47%"
  },
  {
    "Compound": "Cl.Fc1cccc2sc(C3=CSC4=NCCN34)cc12 [Example 5, hydrochloride]",
    "inhibition at 1 µM": "100%"
  },
  {
    "Compound": "C=CC1=C(c2cccc3sccc23)N2CCN=C2S1.Cl [Example 39, hydrochloride]",
    "inhibition at 1 µM": "100%"
  }
]
